pKi: −log10 of the molar value.
Parameter 'readout' = pKi; parameter 'system' = Rho kinase 2 (Homo sapiens, UniProt O75116).
Sequence (O75116 whole entry): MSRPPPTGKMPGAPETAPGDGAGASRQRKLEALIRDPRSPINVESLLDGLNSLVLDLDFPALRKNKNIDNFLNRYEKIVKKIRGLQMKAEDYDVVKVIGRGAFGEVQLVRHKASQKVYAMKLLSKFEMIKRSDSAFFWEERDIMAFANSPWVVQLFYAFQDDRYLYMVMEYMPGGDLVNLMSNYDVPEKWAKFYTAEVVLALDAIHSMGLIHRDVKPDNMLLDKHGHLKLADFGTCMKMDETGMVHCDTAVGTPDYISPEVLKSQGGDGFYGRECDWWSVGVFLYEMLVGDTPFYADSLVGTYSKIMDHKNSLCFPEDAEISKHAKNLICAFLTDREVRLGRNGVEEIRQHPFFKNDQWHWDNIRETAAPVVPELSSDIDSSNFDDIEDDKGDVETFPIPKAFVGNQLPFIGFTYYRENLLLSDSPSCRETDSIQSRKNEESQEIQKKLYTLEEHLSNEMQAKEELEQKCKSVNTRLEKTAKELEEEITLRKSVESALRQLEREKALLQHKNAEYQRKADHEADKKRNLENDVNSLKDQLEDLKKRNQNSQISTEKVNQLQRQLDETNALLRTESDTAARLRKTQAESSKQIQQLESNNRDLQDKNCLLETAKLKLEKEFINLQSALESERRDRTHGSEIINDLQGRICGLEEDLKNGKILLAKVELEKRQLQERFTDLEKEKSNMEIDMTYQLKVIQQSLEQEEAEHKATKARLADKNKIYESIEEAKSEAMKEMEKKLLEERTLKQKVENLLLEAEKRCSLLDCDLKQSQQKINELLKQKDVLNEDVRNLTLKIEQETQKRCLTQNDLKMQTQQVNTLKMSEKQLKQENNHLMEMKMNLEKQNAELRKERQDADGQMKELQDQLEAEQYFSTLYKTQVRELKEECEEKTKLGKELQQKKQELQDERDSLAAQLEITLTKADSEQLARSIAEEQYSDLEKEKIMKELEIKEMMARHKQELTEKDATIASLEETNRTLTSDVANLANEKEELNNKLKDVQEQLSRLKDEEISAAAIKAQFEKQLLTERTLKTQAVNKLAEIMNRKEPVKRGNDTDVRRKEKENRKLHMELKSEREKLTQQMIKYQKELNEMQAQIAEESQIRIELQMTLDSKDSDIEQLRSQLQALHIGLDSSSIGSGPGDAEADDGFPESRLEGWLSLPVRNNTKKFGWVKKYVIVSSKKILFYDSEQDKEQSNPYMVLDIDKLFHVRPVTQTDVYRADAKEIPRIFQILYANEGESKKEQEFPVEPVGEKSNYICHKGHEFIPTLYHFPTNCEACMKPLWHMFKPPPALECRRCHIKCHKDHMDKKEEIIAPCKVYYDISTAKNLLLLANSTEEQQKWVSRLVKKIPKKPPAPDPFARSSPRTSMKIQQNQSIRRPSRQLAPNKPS

Use these answered entries as a reference point.
compound | result
CC1=C(C(=O)Nc2ccc3cnccc3c2)C(c2ccc(C(F)(F)F)c(F)c2)n2nc(NC(=O)c3ccc(CN(C)C)cc3)cc2N1 (single isomer, unassigned) [Example 137B] | > 7.30
CC1=C(C(=O)Nc2ccc3cnccc3c2)C(c2ccc(C)c(F)c2)n2nc(NC(=O)CN3CCCC3)cc2N1 (stereo not drawn) [Example 134] | > 7.30

Data request: Reported pKi, compound CC1=C(C(=O)Nc2ccc3cnccc3c2)C(C2Cc3ccccc3C2)n2nc(CN(C)C)cc2N1 (single isomer, unassigned) [Example 124a] : ____
Data returned: < 6.30

Data request: Entry COCCN(C)Cc1cc2n(n1)C(c1ccc(C(F)(F)F)c(F)c1)C(C(=O)Nc1ccc3cnccc3c1)=C(C)N2 (stereo not drawn) [Example 98] please
Data returned: > 7.30

Data request: Try this compound too: CC1=C(C(=O)Nc2ccc3cnccc3c2)C(c2ccc(C(F)(F)F)c(F)c2F)n2nc(CN(C)C)cc2N1 (single isomer, unassigned) [Example 122a]
Data returned: < 6.30

Data request: Follow-up entry: CC1=C(C(=O)Nc2ccc3[nH]ncc3c2)C(c2ccc(C(F)(F)F)c(F)c2)n2nnnc2N1 (single isomer, unassigned) [Example 25B]
Data returned: 6.30 to 7.30
